Test system: MOLT-4 leukemia
Experiment: NCI-60 one-dose screen, 48 h
Conditions: 10 µM unless noted
This is part of a sample that, as a whole, favours compounds with a hit. Of some 83,000 tested, about 20% had one in any assay. Active and inactive are the calls of the source. The calls were made as follows: active = growth percent below 10; inactive = the rest.
Can you answer with just one of these options? active, inactive

Worked examples, 6 compounds total:
Input line: What was the test verdict on `Cc1ccc2c(n1)C(=O)C(Cl)=C(Nc1ccccc1C(C)C)C2=O` ?
Output line: inactive

Input line: What was the test verdict on `Nc1ccc(Sc2ccc([N+](=O)[O-])c3nonc23)cc1` ?
Output line: inactive

Input line: What was the test verdict on `O=C(Nc1ccc(I)cc1F)c1cc(I)ccc1O` ?
Output line: active

Input line: What was the test verdict on `CCCCn1c(-c2ccc(C(=O)O/N=C(\N)c3ccc(OC)cc3)cc2)nc(-c2ccccc2)c1-c1ccccc1` ?
Output line: active

Input line: What was the test verdict on `CC(C)OC(=O)Nc1ccc(-c2nc(-c3cccc(OCCN4CCOCC4)c3)c(-c3ccnc(Br)c3)[nH]2)cc1` ?
Output line: active

Input line: What was the test verdict on `Brc1c[n+](Cc2ccc3ccccc3c2)cn1Cc1ccc2ccccc2c1` ?
Output line: inactive

Others:
Input line: What was the test verdict on `O=C1c2cccc3cccc(c23)C(=O)N1N1C(=O)c2cccc3c(NC4CCCCC4)ccc(c23)C1=O` ?
Output line: inactive

Input line: What was the test verdict on `CCCCCCN(CCCCCC)c1ccc(/C=C2/SC(=O)NC2=O)c(C)c1` ?
Output line: inactive

Input line: What was the test verdict on CCOC(=O)C1=C(N)Oc2c(sc3c(C)cccc23)C1c1ccc(OC)cc1 (configuration not stated) ?
Output line: inactive

Input line: What was the test verdict on `CCCSc1nc2ccc(C)cc2cc1/C=[N+](\[O-])c1ccccc1` ?
Output line: inactive

Input line: What was the test verdict on `Cc1ccc(-c2nc3c(c(-c4ccccc4)nn3-c3ccccc3)c(-c3ccc(O)cc3)c2C#N)cc1` ?
Output line: inactive

Input line: What was the test verdict on `CSc1nc2ccc(C)cc2cc1/C=N/O` ?
Output line: inactive

Input line: What was the test verdict on `C=C1CC[C@@]2(C#N)[C@H]3[C@H](CC[C@@H]2C)[C@@H](C)C[C@@H](CC(C)(C)C#N)[C@H]13` ?
Output line: inactive

Input line: What was the test verdict on `COc1nc2ccc(C)cc2cc1-c1nc2c(cnn2-c2ccccc2)c(=O)[nH]1` ?
Output line: inactive

Input line: What was the test verdict on `COc1cc2cc(Oc3ccc(NC(=O)Nc4cc(C(F)(F)F)cc(C(F)(F)F)c4)cc3)c(C)nc2cc1OCCN1CCOCC1` ?
Output line: active

Input line: What was the test verdict on `NC(=O)Nc1ccc2ncnc(Nc3ccc(Cl)cc3)c2c1` ?
Output line: inactive

Input line: What was the test verdict on `CCCCC[C@H](O)C/C=C1/C(=O)C=C[C@@H]1C/C=C\CCCC(=O)O` ?
Output line: inactive

Input line: What was the test verdict on `O=c1c2cccc(Cl)c2sc2c(NCCCNCCO)nc3ccccc3c12` ?
Output line: active

Input line: What was the test verdict on `CN1CCN(CC(=O)N2c3cccc4cccc(c34)N(C(=O)CN3CCN(C)CC3)C2c2cn(-c3ccccc3)nc2-c2cccc([N+](=O)[O-])c2)CC1` ?
Output line: active

Input line: What was the test verdict on `C#Cc1cccc(NC(=O)c2ccc(NC(=O)C=C)cc2)c1` ?
Output line: inactive
